These measurements were taken from patent US10214542B2.

- Assayed Target: CDK9/CycT1 (Homo sapiens, UniProt P50750)
- Construct: Recombinant full-length His-tagged human CDK9 and CycT1; His; purchased Invitrogen PV4131; host or cells: insect cells
- Sequence (P50750 whole entry): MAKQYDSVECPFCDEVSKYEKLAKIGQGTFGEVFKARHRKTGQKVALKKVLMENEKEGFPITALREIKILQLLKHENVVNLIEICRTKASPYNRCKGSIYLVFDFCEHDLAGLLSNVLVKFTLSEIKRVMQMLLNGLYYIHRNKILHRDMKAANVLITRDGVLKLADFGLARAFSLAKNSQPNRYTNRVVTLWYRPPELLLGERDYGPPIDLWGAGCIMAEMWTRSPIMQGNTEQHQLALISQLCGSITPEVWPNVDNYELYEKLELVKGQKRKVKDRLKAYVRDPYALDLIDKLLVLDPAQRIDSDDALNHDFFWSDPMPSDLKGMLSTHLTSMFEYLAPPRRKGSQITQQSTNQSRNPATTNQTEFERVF
- Sequence (O60563 whole entry partner): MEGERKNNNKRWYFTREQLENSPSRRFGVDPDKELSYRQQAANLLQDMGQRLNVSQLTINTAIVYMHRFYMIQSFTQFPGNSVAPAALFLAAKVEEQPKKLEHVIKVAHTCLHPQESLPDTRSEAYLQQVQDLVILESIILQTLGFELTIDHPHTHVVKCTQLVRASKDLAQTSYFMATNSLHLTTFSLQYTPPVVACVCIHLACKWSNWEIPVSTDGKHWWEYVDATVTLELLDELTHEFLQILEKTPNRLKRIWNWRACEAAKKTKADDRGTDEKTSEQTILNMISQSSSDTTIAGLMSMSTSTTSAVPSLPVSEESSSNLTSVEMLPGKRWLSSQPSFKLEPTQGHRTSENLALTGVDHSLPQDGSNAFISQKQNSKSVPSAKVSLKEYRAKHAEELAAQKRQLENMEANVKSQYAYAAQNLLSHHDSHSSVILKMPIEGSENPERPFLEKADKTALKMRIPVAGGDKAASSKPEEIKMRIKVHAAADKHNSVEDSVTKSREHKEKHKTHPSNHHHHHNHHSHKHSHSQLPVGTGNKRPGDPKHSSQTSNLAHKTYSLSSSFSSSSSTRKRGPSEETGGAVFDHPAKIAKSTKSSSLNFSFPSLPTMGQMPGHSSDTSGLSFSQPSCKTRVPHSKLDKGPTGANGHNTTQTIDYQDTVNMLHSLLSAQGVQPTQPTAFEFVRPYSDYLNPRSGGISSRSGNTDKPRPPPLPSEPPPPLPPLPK
- Protocol Notes: CDK9/CycT1 high ATP kinase assay (TR-FRET, Method 1b)
- Assay type: biochemical
- Condition Parameters: Method 1b, 2 mM ATP
Quantity Name: log10 of IC50 (log10 of the value in nM)

[[record]]
compound = "CSCc1cc2nc(c1)OCCCCCc1cc(F)ccc1-c1cc(ncc1F)N2"
measurement = 2.39

[[record]]
compound = "CN1CCCCOc2cc(F)ccc2-c2cc(ncc2F)Nc2cc(CS(C)(=N)=O)cc1n2 (racemic)"
measurement = 0.41

[[record]]
compound = "CS(=N)(=O)Cc1cc2nc(c1)OCCCCCc1cc(F)ccc1-c1cc(ncc1F)N2 (racemic)"
measurement = 0.72

[[record]]
compound = "CC(C)(C)OC(=O)N=S(C)(=O)Cc1cc2nc(c1)Nc1cc(c(F)cn1)-c1ccc(F)cc1OCCCN2 (racemic)"
measurement = 0.28

[[record]]
compound = "CC(C)(C)OC(=O)N=S(C)(=O)Cc1cc2cc(c1)OCCCCNc1cc(F)ccc1-c1nc(ncc1F)N2 (racemic)"
measurement = 0.67

[[record]]
compound = "CS(=N)(=O)Cc1cc2cc(c1)OCCCCSc1cc(F)ccc1-c1nc(ncc1F)N2 (racemic)"
measurement = 0.65

[[record]]
compound = "CS(=N)(=O)Cc1cc2nc(c1)Nc1cc(c(F)cn1)-c1ccc(F)cc1OCCCCCN2 (racemic)"
measurement = 0.00

[[record]]
compound = "CS(=N)(=O)Cc1cc2cc(c1)OCCCCNc1cc(F)ccc1-c1nc(ncc1F)N2 (racemic)"
measurement = 0.18

[[record]]
compound = "CSCc1cc2nc(c1F)N(C)CCCCOc1cc(F)ccc1-c1cc(ncc1F)N2"
measurement = 1.00

[[record]]
compound = "CN1CCCCNc2cc(F)ccc2-c2nc(ncc2F)Nc2cc(CS(C)(=N)=O)cc1c2.O=CO (racemic)"
measurement = 0.34

[[record]]
compound = "CS(=N)(=O)Cc1cc2nc(c1)Nc1cc(c(F)cn1)-c1ccc(F)cc1OCCCCN2 (racemic)"
measurement = 0.59

[[record]]
compound = "C[S+]([O-])Cc1cc2nc(c1)OCCCCc1cc(F)ccc1-c1cc(ncc1F)N2 (racemic)"
measurement = 0.78

[[record]]
compound = "CC(C)(C)OC(=O)N=S(C)(=O)Cc1cc2cc(c1)OCCCCSc1cc(F)ccc1-c1nc(ncc1F)N2 (racemic)"
measurement = 1.11

[[record]]
compound = "CS(=O)(Cc1cc2nc(c1)Nc1cc(c(F)cn1)-c1ccc(F)cc1OCCCCN2)=NC(=O)OCc1ccccc1 (racemic)"
measurement = 1.10

[[record]]
compound = "C[S+]([O-])Cc1cc2nc(c1)OCCCCCc1cc(F)ccc1-c1cc(ncc1F)N2 (racemic)"
measurement = 1.23

